system: NCI-H226 lung; assay: NCI-60 one-dose screen, 48 h; conditions: 10 µM unless noted
This is part of a sample that, as a whole, favours compounds with a hit. Of some 83,000 tested, about 20% had one in any assay. The source made the active and inactive calls. The calls were made as follows: active = growth percent below 10; inactive = the rest.
Classes used: True = active, False = inactive

1) CC1(C)[C@@H](O[C@@H]2OC[C@@H](O[C@@H]3O[C@H](CO)[C@@H](O)[C@H](O)[C@H]3O[C@@H]3OC[C@@H](O)[C@H](O)[C@H]3O)[C@H](O)[C@H]2O[C@@H]2O[C@H](CO)[C@@H](O)[C@H](O)[C@H]2O)CC[C@]2(C)[C@H]3CC[C@]45OC[C@@]6(CC[C@](C)(C=O)C[C@H]64)[C@H](O)C[C@@]5(C)[C@]3(C)CC[C@@H]12 = True
2) Cc1ccc2c(=O)cc(C(=O)Nc3sc4c(c3C(=O)NCc3cccnc3)CCCC4)oc2c1C = False
3) CCN1C(=O)N(CC)C2C1NN=c1s/c(=C\c3cnc(C)n3C)c(=O)n12 (configuration not stated) = False
4) COc1ccc(/C(C)=C(\c2ccc(Cl)cc2)c2ccc(OCCN3CCCCC3)cc2)cc1 = False
5) COc1ccc(/C=C(/c2ccccc2)[N+](=O)[O-])c(OC)c1 = False
6) Nc1[nH]c(=S)nc2oc(-c3ccccc3)c(-c3ccccc3)c12 = False
7) NC(=O)c1c(NC(=O)c2cccs2)sc2c1CCC(=O)C2 = False
